Target: human MCH-1R (human, UniProt Q99705 1-353)
Sequence (Q99705 whole entry): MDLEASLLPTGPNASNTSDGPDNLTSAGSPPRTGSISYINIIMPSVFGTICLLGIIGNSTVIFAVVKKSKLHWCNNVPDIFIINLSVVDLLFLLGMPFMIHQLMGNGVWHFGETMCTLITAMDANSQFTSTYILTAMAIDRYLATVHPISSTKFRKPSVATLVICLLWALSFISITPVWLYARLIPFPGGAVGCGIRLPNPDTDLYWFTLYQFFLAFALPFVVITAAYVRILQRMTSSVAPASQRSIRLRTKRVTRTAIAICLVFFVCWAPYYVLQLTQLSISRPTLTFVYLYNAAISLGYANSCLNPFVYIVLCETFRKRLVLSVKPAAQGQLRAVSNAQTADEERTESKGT
Experiment: cell-based or functional assay
MEASUREMENT TYPE: EC50, aequorin bioluminescence (nM)
// units = nM; emit number, no label

Please look up its EC50, aequorin bioluminescence: RCMLXRVYRPC (HELM PEPTIDE1{[ac].R.C.M.L.[Cit].R.V.Y.R.P.C.[am]}$PEPTIDE1,PEPTIDE1,3:R3-12:R3$$$V2.0; SMILES CSCC[C@@H]1NC(=O)[C@@H](NC(=O)[C@H](CCCNC(=N)N)NC(C)=O)CSSC[C@@H](C(N)=O)NC(=O)[C@@H]2CCCN2C(=O)[C@H](CCCNC(=N)N)NC(=O)[C@H](Cc2ccc(O)cc2)NC(=O)[C@H](C(C)C)NC(=O)[C@H](CCCNC(=N)N)NC(=O)[C@H](CCCNC(N)=O)NC(=O)[C@H](CC(C)C)NC1=O, also called Cit^10 peptide) [SEQ. ID. NO. 27 (Cit^10 analog of Ac-hMCH(6-16)-NH2)]
920
